- System: MDAMB436
- measurement_notes: -log10 GI50 (growth inhibition 50%) (-log10(M)); higher = more potent growth inhibition
endpoint_name: -log10 GI50

In the examples that follow, each entry is paired with its recorded -log10 GI50.
INSERT INTO assay_data (molecule, target, endpoint_value) VALUES
  ('C[C@@H](Oc1cc(-n2cnc3ccc(CN4CCN(C)CC4)cc32)sc1C(N)=O)c1ccccc1C(F)(F)F', 'MDAMB436', 7.86),
  ('O=c1[nH]cc(F)c(=O)[nH]1', 'MDAMB436', 2.97),
  ('CC(=O)Nc1cccc(-n2c(=O)n(C3CC3)c(=O)c3c(Nc4ccc(I)cc4F)n(C)c(=O)c(C)c32)c1', 'MDAMB436', 4.81);

1: O=C(O)C(=O)O.[NH-][C@@H]1CCCC[C@H]1[NH-].[Pt+2]
2: CC[C@@]1(O)C(=O)OCc2c1cc1n(c2=O)Cc2cc3c(CN(C)C)c(O)ccc3nc2-1
Form: Entry with minimum -log10 GI50 (choose one): 1 / 2 Label of pick, please.
1

a: O=C1NC(=O)/C(=C/c2ccc3nccc(-c4ccncc4)c3c2)S1
b: COc1cc2ncnc(Nc3cccc(Cl)c3)c2cc1OC
Rank a against b by their -log10 GI50 values and give the higher one. Label of pick, please.
a
(a: 6.09, b: 4.09)
